So I've got a bunch of molecules here, and I need their GI50 values.
- Tested on: CAKI-1 renal
- measurementProtocol: NCI tumour cell line growth inhibition, 48 h

Example entries begin here.
- Cn1ccc2c(NCCN)c3c(c(NCCN)c21)C(=O)c1ccccc1C3=O: 2510 nM
- CC(=O)C1CC2(c3ccc(C)cc3)C(c3ccc(C)cc3)=C(c3ccc(C)cc3)C1(c1ccc(C)cc1)S2=O (configuration not stated): > 100000 nM
- NCCCC(=O)Nc1ccncc1: > 100000 nM
- COc1ccc(/C=C2\CN(C(=O)C(Cl)Cl)C/C(=C\c3ccc(OC)c(OC)c3)C2=O)cc1OC: 368 nM
- Nc1nc(Nc2ccc3c(c2)CC[C@@H](N2CCCC2)CC3)nn1-c1cc2c(nn1)-c1ccccc1CCC2: 1220 nM

I would be grateful if you could provide GI50 for each of the following entries.
1. C=C1C(=O)O[C@@H]2C1C[C@@H](O)/C(C)=C/C/C=C(\C)CCC[C@H](C)[C@H]2OC(C)=O (some centres not stated)
2. CCCCCCCCCNCCCCCCCCC

Result string:
1: 32800 nM; 2: 1490 nM
